The measured values listed here are drawn from patent US11059854B2.

Assay: Pharmacokinetics in mice administrated with single compound
Type: in vivo, C57BL/6J male mice
Settings: male, C57BL/6J, mouse, plasma, oral (intragastric) 10 mg/kg, 0.5% HPMC
Protocol: Twelve C57BL/6J male mice were randomly divided into two groups, 6 mice in each group. […] Plasma (using K2-EDTA as anticoagulant) samples were taken at 0.083, 0.25, 0.5, 1, 2, 4, 6, 8 and 24 hours after administration for the intravenous group; and plasma samples were taken at 0.25, 0.5, 1, 2, 4, 6, 8 and 24 hours after administration for the oral group. […] The obtained plasma concentrations were plotted against time, and PK parameters were calculated by using Phoenix WinNonlin 6.3.
reportedMetric: AUC (µM·h)

structurestring=CC[C@H]1[C@@H](O)[C@@H]2[C@H](CC[C@]3(C)[C@@H]([C@H](C)CCOc4ccc(C(=O)O)cn4)CC[C@@H]23)[C@@]2(C)CC[C@@H](O)C[C@@H]12 reportedmetric=AUC unittext=µM·h measuredresult=2.34

----------
assay: Pharmacokinetics in mice administrated with single compound; type: in vivo, C57BL/6J male mice; conditions: male, C57BL/6J, mouse, plasma, oral (intragastric) 10 mg/kg, 0.5% HPMC
reportedMetric: Cmax (nM)

structurestring=CC[C@H]1[C@@H](O)[C@@H]2[C@H](CC[C@]3(C)[C@@H]([C@H](C)CCOc4ccc(C(=O)O)cn4)CC[C@@H]23)[C@@]2(C)CC[C@@H](O)C[C@@H]12 unittext=nM measuredresult=936
